system.name: murine FAP (Mus musculus, UniProt P97321)
Sequence (P97321 1-761): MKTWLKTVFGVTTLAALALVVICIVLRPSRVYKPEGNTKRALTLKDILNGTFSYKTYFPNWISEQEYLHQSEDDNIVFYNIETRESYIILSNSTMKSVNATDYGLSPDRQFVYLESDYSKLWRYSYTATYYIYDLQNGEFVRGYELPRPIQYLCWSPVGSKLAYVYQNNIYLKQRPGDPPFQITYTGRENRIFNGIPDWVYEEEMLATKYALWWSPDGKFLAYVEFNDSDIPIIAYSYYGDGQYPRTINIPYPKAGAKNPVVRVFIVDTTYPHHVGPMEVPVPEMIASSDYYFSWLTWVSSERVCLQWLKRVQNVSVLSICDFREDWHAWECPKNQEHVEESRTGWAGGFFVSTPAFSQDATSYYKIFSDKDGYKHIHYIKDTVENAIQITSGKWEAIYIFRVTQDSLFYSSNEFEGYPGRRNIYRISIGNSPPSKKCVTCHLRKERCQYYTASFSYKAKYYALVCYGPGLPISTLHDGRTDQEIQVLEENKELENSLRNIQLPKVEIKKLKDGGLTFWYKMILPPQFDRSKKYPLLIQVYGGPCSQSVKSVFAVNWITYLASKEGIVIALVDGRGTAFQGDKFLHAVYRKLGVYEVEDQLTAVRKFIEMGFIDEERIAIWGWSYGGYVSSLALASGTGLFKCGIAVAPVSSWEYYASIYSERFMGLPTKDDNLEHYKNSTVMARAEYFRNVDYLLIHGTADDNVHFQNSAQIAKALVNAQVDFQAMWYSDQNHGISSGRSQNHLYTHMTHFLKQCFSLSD
IC50 values for the molecules below.
Give the value in nM but do not write nM after it.

molecule	experimental.readout	experimental.value
N#C[C@@H]1CC(F)(F)CN1C(=O)CNC(=O)c1ccnc2c(OCCCNC(=O)CN3CCN(CC(=O)O)CCN(CC(=O)O)CCN(CC(=O)O)CC3)cccc12 [eFAP-6]	IC50	3.1

Test system murine FAP (Mus musculus, UniProt P97321); read-out IC50; what value for CN(CCCN1CCN(C(=O)CN2CCN(CC(=O)O)CCN(CC(=O)O)CCN(CC(=O)O)CC2)CC1)c1ccc2nccc(C(=O)NCC(=O)N3CC(F)(F)C[C@H]3C#N)c2c1 [FAPI-46, reference compound] ?
15
